- target desc: EGFR on the surface of human tumour cells (A431, H292) (human, UniProt P00533 25-1210)
- assay method text: cell-based or functional assay
value kind: % inhibition of EGFR phosphorylation at 100 nM binder, cell-based assay (%)

E19 (designed binder) 10Fn3 domain: MGVSDVPRDLEVVAATPTSLLISWETESNAYQYYRITYGETGGNSPVQEFTVPGQIYTATISGLKPGVDYTITVYAVTDYKPHADGPHTYHESPISINYRTEIDKPSQ    84.6
E25 (designed binder) 10Fn3 domain: MGVSDVPRDLEVVAATPTSLLISWGYQSGGYTYYRITYGETGGNSPVQEFTVPHDLRTATISGLKPGVDYTITVYAVTDYAYKEYQEHPISINYRTEIDKPSQ    77.1
E28 (designed binder) 10Fn3 domain: MGVSDVPRDLEVVAATPTSLLISWNPGSKSYQYYRITYGETGGNSPVQEFTVPGGVRTATISGLKPGVDYTITVYAVTDFYNPDTHEYLYNQYPISINYRTEIDKPSQ    85.3
E20 (designed binder) 10Fn3 domain: MGVSDVPRDLEVVAATPTSLLISWMTSPSVYQYYRITYGETGGNSPVQEFTVPGPVQTATISGLKPGVDYTITVYAVTDYKEHQHAPHQYTAHPISINYRTEIDKPSQ    80.2
E22 (designed binder) 10Fn3 domain: MGVSDVPRDLEVVAATPTSLLISWSTGRTTYQYYRITYGETGGNSPVQEFTVPHDLDTATISGLKPGVDYTITVYAVTDSYNPATHEYKYHQTPISINYRTEIDKPSQ    83.7
E31 (designed binder) 10Fn3 domain: MGVSDVPRDLEVVAATPTSLLISWTYNDGSYQYYRITYGETGGNSPVQEFTVPYAVYTATISGLKPGVDYTITVYAVTDFYNPATYEYIYHTTPISINYRTEIDKPSQ    75.8
E23 (designed binder) 10Fn3 domain: MGVSDVPRDLEVVAATPTSLLISWQVPRPMYQYYRITYGETGGNSPVQEFTVPYDVITATISGLKPGVDYTITVYAVTDMMHVEYAEYPISINYRTEIDKPSQ    81.1
E29 (designed binder) 10Fn3 domain: MGVSDVPRDLEVVAATPTSLLISWQPGTTHYQYYRITYGETGGNSPVQEFTVPYDLMTATISGLKPGVDYTITVYAVTDYYNPNTYEYIYLTTPISINYRTEIDKPSQ    87.9
